Data provenance is paper PMC10539800.

Molecular target: Dvl-3 PDZ (Homo sapiens, UniProt Q92997)
Construct: spectra of Dvl-3 PDZ in the absence and presence of the compound; His-tag (cleaved yes); made in house
Sequence (Q92997 243-336): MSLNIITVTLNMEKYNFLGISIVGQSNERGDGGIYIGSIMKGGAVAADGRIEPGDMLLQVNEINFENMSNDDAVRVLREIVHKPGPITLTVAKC
Assay: Binding constant by isothermal titration calorimetry (ITC)
Conditions: by ITC; one-site binding model, 25 °C; read-out: K D Dvl-3 PDZ
experimental endpoint: Kd (µM)

molecule	measured value
O=C(O)c1cc(C(F)(F)F)ccc1NS(=O)(=O)c1ccc2c(c1)CCCC2 [Compound 8]	17.4

A. O=C(O)c1cccc(S(=O)(=O)Nc2cccc(S(=O)(=O)Nc3ccccc3C(=O)O)c2)c1 [NPL-1011, reference compound]
B. Cc1ccc(NS(=O)(=O)c2ccc(CNC(=O)c3cc(Cl)c[nH]3)c(Cl)c2)c(C(=O)O)c1 [Compound 21]
Determine, for A and B , which has the greater value of Kd. Selection: enter the item's label.
A
(A: 79.7 µM, B: 12.5 µM)
